Where these numbers come from: PubChem BioAssay

molecular target: Fibroblast growth factor 10 (Homo sapiens); assay: FGF10 binders on small-molecule microarrays, primary screen, biochemical, small-molecule microarray, 635 nm fluorescence (AID 1102); conditions: FGF10 binding, fluorescence 635 nm, higher = more signal
Experimental readout: composite z-score
Field format: numeric only.

Which composite z-score reading was recorded for the compound O=C1CCCC(C2=CCCCC2=O)C1 (stereo unspecified) ?
0.466

Which composite z-score reading was recorded for the compound CCc1cc2c(nc1CC)CCN(CCC(C)=NO[C@H](C)c1cn([C@@H]3COC[C@H]3O)nn1)C2 ?
0.189

Which composite z-score reading was recorded for the compound COC(=O)[C@H](C)NC(=O)CCC1CC(OC(=O)NCc2ccc3c(c2)OCO3)CC2(CCCC(COC(=O)NCC(c3ccccc3)c3ccccc3)O2)O1 (stereo partly specified) ?
1.33

Which composite z-score reading was recorded for the compound CO[C@H]1COC(=O)[C@@H](C)COC(=O)[C@H](C)NC(=O)CC=C[C@H]1C ?
0.577

Which composite z-score reading was recorded for the compound COC(=O)CC=C[C@@H](C)[C@@H](C=NO[C@H](C)c1cn([C@H](CO)Cc2ccccc2)nn1)OC ?
0.877

Which composite z-score reading was recorded for the compound CCOC(=O)NN=C1C[C@@H](O)[C@@H](O)[C@@H]2[C@@H]3C(=O)N(Cc4ccc5c(c4)OCO5)C(=O)[C@@H]3CC[C@H]12 ?
0.0798
